Measured combination Emax, listed per entry for reference.
System: SNU-407 (Colorectal Carcinoma)
Test: combination Emax (second highest fraction inhibited in the dose matrix, 72 h); higher = more inhibition; extreme values may be limits of the assay

// known answers, use as guide
- COMPOUND: "CN(CCO)CC[C@H](CSc1ccccc1)Nc1ccc(S(=O)(=O)NC(=O)c2ccc(N3CCC([C@@H](O)c4ccccc4-c4ccc(Cl)cc4)CC3)cc2)cc1S(=O)(=O)C(F)(F)F [AZD4320] + C[C@@H]1COCCN1C2=NC(=NC(=C2)C3(CC3)[S@](=N)(=O)C)C4=C5C=CNC5=NC=C4 [AZD6738] (first compound max 1 µM, 7x7, partner max 10 µM)"
  combination Emax: 0.709
- COMPOUND: "CN(C)CCCOc1ccc(-c2ccc3ncc4c(c3c2)n(C2CCOCC2)c(=O)n4C)cn1 [AZD0156] + C[C@@H]1COCCN1C2=NC(=NC(=C2)C3(CC3)[S@](=N)(=O)C)C4=C5C=CNC5=NC=C4 [AZD6738] (first compound max 1 µM, 7x7, partner max 10 µM)"
  combination Emax: 0.742

Return combination Emax (reported value) for this compound: CCN(CCO)CCCOc1ccc2c(Nc3cc(CC(=O)Nc4cccc(F)c4)[nH]n3)ncnc2c1 [AZD2811] + O=C(c1cc(Cc2n[nH]c(=O)c3ccccc23)ccc1F)N1CCN(C(=O)C2CC2)CC1 [Olaparib] (first compound max 1 µM, 7x7, partner max 10 µM)
0.306

Return combination Emax (reported value) for this compound: COc1cc2ncnc(Nc3ccc(F)c(Cl)c3)c2cc1OCCCN1CCOCC1 [Gefitinib] + CC(C)n1c(=O)n(C)c2cnc3cc(F)c(-c4ccc(OCCCN5CCCCC5)nc4)cc3c21 [AZD1390] (first compound max 10 µM, 7x7, partner max 0.3 µM)
0.168

Return combination Emax (reported value) for this compound: CN(CCO)CC[C@H](CSc1ccccc1)Nc1ccc(S(=O)(=O)NC(=O)c2ccc(N3CCC([C@@H](O)c4ccccc4-c4ccc(Cl)cc4)CC3)cc2)cc1S(=O)(=O)C(F)(F)F [AZD4320] + C=CCn1c(=O)c2cnc(Nc3ccc(N4CCN(C)CC4)cc3)nc2n1-c1cccc(C(C)(C)O)n1 [AZD1775] (first compound max 1 µM, partner max 1 µM)
0.415

Return combination Emax (reported value) for this compound: CC1(C)CCC(CN2CCN(c3ccc(C(=O)NS(=O)(=O)c4ccc(NCC5CCOCC5)c([N+](=O)[O-])c4)c(Oc4cnc5[nH]ccc5c4)c3)CC2)=C(c2ccc(Cl)cc2)C1 [Venetoclax] + Cc1cc2ncnn2cc1Nc1ncc2c(n1)n(C1CCOCC1)c(=O)n2C [AZD7648] (first compound max 1 µM, 7x7, partner max 10 µM)
0.373

Return combination Emax (reported value) for this compound: CN(CCO)CC[C@H](CSc1ccccc1)Nc1ccc(S(=O)(=O)NC(=O)c2ccc(N3CCC([C@@H](O)c4ccccc4-c4ccc(Cl)cc4)CC3)cc2)cc1S(=O)(=O)C(F)(F)F [AZD4320] + CCN(CCO)CCCOc1ccc2c(Nc3cc(CC(=O)Nc4cccc(F)c4)[nH]n3)ncnc2c1 [AZD2811] (first compound max 1 µM, 7x7, partner max 1 µM)
0.411

====

Measured combination Emax, listed per entry for reference.
Test system: T84 (Colorectal Carcinoma)
Test: combination Emax (second highest fraction inhibited in the dose matrix, 72 h); higher = more inhibition; extreme values may be limits of the assay
Please give only the number in your answer, with no unit.

- MOLECULE: "CN(CCO)CC[C@H](CSc1ccccc1)Nc1ccc(S(=O)(=O)NC(=O)c2ccc(N3CCC([C@@H](O)c4ccccc4-c4ccc(Cl)cc4)CC3)cc2)cc1S(=O)(=O)C(F)(F)F [AZD4320] + CN(C)CCCOc1ccc(-c2ccc3ncc4c(c3c2)n(C2CCOCC2)c(=O)n4C)cn1 [AZD0156] (first compound max 1 µM, 7x7, partner max 1 µM)"
  MEASURED_ENDPOINT: "combination Emax"
  ENDPOINT_RESULT: 0.108
- MOLECULE: "Cc1c2c(nn1C)CSCc1cc(n(C)n1)CSc1cc(c3ccccc3c1)OCCCc1c(C(=O)O)n(C)c3c-2c(Cl)ccc13 [AZD5991] + Cn1cnc2c(F)c(Nc3ccc(Br)cc3Cl)c(C(=O)NOCCO)cc21 [Selumetinib] (first compound max 1 µM, 7x7, partner max 3 µM)"
  MEASURED_ENDPOINT: "combination Emax"
  ENDPOINT_RESULT: 0.406

Return combination Emax (reported value) for this molecule: NC1(C(=O)N[C@@H](CCO)c2ccc(Cl)cc2)CCN(c2ncnc3[nH]ccc23)CC1 [Capivasertib] + CCN(CCO)CCCOc1ccc2c(Nc3cc(CC(=O)Nc4cccc(F)c4)[nH]n3)ncnc2c1 [AZD2811] (first compound max 10 µM, 7x7, partner max 1 µM)
0.389

====

Test system: LCLC-103H (Non-Small Cell Lung Carcinoma)
Assay: combination Emax (second highest fraction inhibited in the dose matrix, 72 h); higher = more inhibition; extreme values may be limits of the assay
Answer not satisfied if combination Emax is under 0.5, and satisfied if it is 0.5 or more.

Below, 3 molecules whose answers are already recorded.
- MOLECULE: "Cn1cnc2c(F)c(Nc3ccc(Br)cc3Cl)c(C(=O)NOCCO)cc21 [Selumetinib] + C=CCn1c(=O)c2cnc(Nc3ccc(N4CCN(C)CC4)cc3)nc2n1-c1cccc(C(C)(C)O)n1 [AZD1775] (first compound max 10 µM, partner max 1 µM)"
  CATEGORY: "not satisfied"
- MOLECULE: "COc1cccc(OCCCN)c1-c1cc(Nc2cnc(C#N)cn2)n[nH]1 [Prexasertib] + Cc1cc2ncnn2cc1Nc1ncc2c(n1)n(C1CCOCC1)c(=O)n2C [AZD7648] (first compound max 1 µM, 7x7, partner max 10 µM)"
  CATEGORY: "satisfied"
- MOLECULE: "Cn1cnc2c(F)c(Nc3ccc(Br)cc3Cl)c(C(=O)NOCCO)cc21 [Selumetinib] + CCN(CCO)CCCOc1ccc2c(Nc3cc(CC(=O)Nc4cccc(F)c4)[nH]n3)ncnc2c1 [AZD2811] (first compound max 10 µM, 7x7, partner max 1 µM)"
  CATEGORY: "not satisfied"

I'd appreciate it if you could say whether CC(=O)Nc1cccc(-n2c(=O)n(C3CC3)c(=O)c3c(Nc4ccc(I)cc4F)n(C)c(=O)c(C)c32)c1 [Trametinib] + Cc1nc(-c2cn3c(n2)-c2ccc(-c4cnn(C(C)(C)C(N)=O)c4)cc2OCC3)n(C(C)C)n1 [Taselisib] (first compound max 1 µM, 7x7, partner max 10 µM) has combination Emax at least equal to 0.5.
satisfied

====

Test system: BHT-101 (Thyroid Gland Carcinoma);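 note: after 72 h of two-drug dosing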
Assay: Bliss excess, mean over the matrix (fraction); higher = more synergy
Measured Bliss excess, listed per entry for reference.
Please give only the number in your answer, with no unit.

// known answers, use as guide
- COMPOUND: "Cc1c2c(nn1C)CSCc1cc(n(C)n1)CSc1cc(c3ccccc3c1)OCCCc1c(C(=O)O)n(C)c3c-2c(Cl)ccc13 [AZD5991] + C[C@@H]1COCCN1C2=NC(=NC(=C2)C3(CC3)[S@](=N)(=O)C)C4=C5C=CNC5=NC=C4 [AZD6738] (first compound max 1 µM, 7x7, partner max 10 µM)"
  Bliss excess: 0.0666
- COMPOUND: "CC1(C)CCC(CN2CCN(c3ccc(C(=O)NS(=O)(=O)c4ccc(NCC5CCOCC5)c([N+](=O)[O-])c4)c(Oc4cnc5[nH]ccc5c4)c3)CC2)=C(c2ccc(Cl)cc2)C1 [Venetoclax] + CCN(CCO)CCCOc1ccc2c(Nc3cc(CC(=O)Nc4cccc(F)c4)[nH]n3)ncnc2c1 [AZD2811] (first compound max 1 µM, 7x7, partner max 1 µM)"
  Bliss excess: -0.0256

Next up:
Return Bliss excess (reported value) for this compound: NC1(C(=O)N[C@@H](CCO)c2ccc(Cl)cc2)CCN(c2ncnc3[nH]ccc23)CC1 [Capivasertib] + COc1nnc2ccc(N3CCC(c4ccc(OCCN5CCN(C)C(=O)[C@H]5C)cc4)CC3)nn12 [AZD5153] (first compound max 10 µM, 7x7, partner max 1 µM)
-0.0479

====

System: BHT-101 (Thyroid Gland Carcinoma);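 note: after 72 h of two-drug dosing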
Assay: Bliss excess, mean over the matrix (fraction); higher = more synergy
# thresholds on Bliss excess define classes: L (below -0.03), M (-0.03 to below 0.03), H (0.03 or more)

Categorize the following entry: COc1cccc(OCCCN)c1-c1cc(Nc2cnc(C#N)cn2)n[nH]1 [Prexasertib] + C[C@@H]1COCCN1C2=NC(=NC(=C2)C3(CC3)[S@](=N)(=O)C)C4=C5C=CNC5=NC=C4 [AZD6738] (first compound max 1 µM, 7x7, partner max 10 µM)
H

Categorize the following entry: CC1(C)CCC(CN2CCN(c3ccc(C(=O)NS(=O)(=O)c4ccc(NCC5CCOCC5)c([N+](=O)[O-])c4)c(Oc4cnc5[nH]ccc5c4)c3)CC2)=C(c2ccc(Cl)cc2)C1 [Venetoclax] + C[C@@H]1COCCN1C2=NC(=NC(=C2)C3(CC3)[S@](=N)(=O)C)C4=C5C=CNC5=NC=C4 [AZD6738] (first compound max 1 µM, 7x7, partner max 10 µM)
L

Categorize the following entry: CC(=O)c1c(C)c2cnc(Nc3ccc(N4CCNCC4)cn3)nc2n(C2CCCC2)c1=O [Palbociclib] + Cc1c2c(nn1C)CSCc1cc(n(C)n1)CSc1cc(c3ccccc3c1)OCCCc1c(C(=O)O)n(C)c3c-2c(Cl)ccc13 [AZD5991] (first compound max 10 µM, 7x7, partner max 1 µM)
M

Categorize the following entry: CC1(C)CCC(CN2CCN(c3ccc(C(=O)NS(=O)(=O)c4ccc(NCC5CCOCC5)c([N+](=O)[O-])c4)c(Oc4cnc5[nH]ccc5c4)c3)CC2)=C(c2ccc(Cl)cc2)C1 [Venetoclax] + CN(C)CCCOc1ccc(-c2ccc3ncc4c(c3c2)n(C2CCOCC2)c(=O)n4C)cn1 [AZD0156] (first compound max 1 µM, 7x7, partner max 1 µM)
M

Categorize the following entry: CS(=O)(=O)CCNCc1ccc(-c2ccc3ncnc(Nc4ccc(OCc5cccc(F)c5)c(Cl)c4)c3c2)o1 [Lapatinib] + C[C@@H](Oc1cc(-c2cnn(C3CCNCC3)c2)cnc1N)c1c(Cl)ccc(F)c1Cl [Crizotinib] (first compound max 10 µM, 7x7, partner max 10 µM)
L
